This collection of values is drawn from patent US20240109930A1.

# collection of IC50 values tested on human Gal-3 (hGal-3) (Homo sapiens (Human))
# Sequence (P17931 whole entry): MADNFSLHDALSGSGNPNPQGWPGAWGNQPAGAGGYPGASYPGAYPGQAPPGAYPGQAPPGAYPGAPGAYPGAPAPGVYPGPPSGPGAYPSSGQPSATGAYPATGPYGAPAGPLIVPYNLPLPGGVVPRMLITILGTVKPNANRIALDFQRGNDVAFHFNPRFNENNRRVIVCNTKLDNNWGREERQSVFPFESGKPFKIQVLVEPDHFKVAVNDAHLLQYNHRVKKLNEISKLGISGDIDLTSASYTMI
QUANTITY NAME: IC50 (µM)

[[record]]
compound = "CO[C@@H]1[C@@H](n2cc(-c3ccc(Cl)c(F)c3F)nn2)[C@@H](O)[C@@H](CO)O[C@@H]1Cc1cn([C@@H]2COC[C@H]2F)nn1 (single isomer, unassigned) [Example 2.1.74.C]"
assayed_system = "human Gal-3 (hGal-3) (Homo sapiens (Human))"
quantity_name = "IC50"
measured_number = 0.06

[[record]]
compound = "CO[C@@H]1[C@@H](n2cc(-c3ccc(Cl)c(F)c3F)nn2)[C@@H](O)[C@@H](CO)O[C@@H]1Cc1cn(C2(CF)COC2)nn1"
assayed_system = "human Gal-3 (hGal-3) (Homo sapiens (Human))"
quantity_name = "IC50"
measured_number = 0.02

[[record]]
compound = "CO[C@@H]1[C@@H](n2cc(-c3ccc(F)c(F)c3F)nn2)[C@@H](O)[C@@H](CO)O[C@@H]1Cc1cn(C2(CO)CC(F)(F)C2)nn1"
assayed_system = "human Gal-3 (hGal-3) (Homo sapiens (Human))"
quantity_name = "IC50"
measured_number = 0.09

[[record]]
compound = "CO[C@@H]1[C@@H](n2cc(-c3ccc(C)c(F)c3F)nn2)[C@@H](O)[C@@H](CO)O[C@@H]1Cc1cn(C23CC(C)(C2)C3)nn1"
assayed_system = "human Gal-3 (hGal-3) (Homo sapiens (Human))"
quantity_name = "IC50"
measured_number = 0.04

[[record]]
compound = "CO[C@@H]1[C@@H](n2cc(-c3ccc(Cl)c(F)c3F)nn2)[C@@H](O)[C@@H](CO)O[C@@H]1Cn1cc(C2(CO)CC2)nn1"
assayed_system = "human Gal-3 (hGal-3) (Homo sapiens (Human))"
quantity_name = "IC50"
measured_number = 0.05

[[record]]
compound = "CO[C@@H]1[C@@H](n2cc(-c3ccc(Cl)c(F)c3F)nn2)[C@@H](O)[C@@H](CO)O[C@@H]1Cc1cn([C@@H]2COC[C@@H]2F)nn1 (single isomer, unassigned)"
assayed_system = "human Gal-3 (hGal-3) (Homo sapiens (Human))"
quantity_name = "IC50"
measured_number = 0.04

[[record]]
compound = "CO[C@@H]1[C@@H](n2cc(-c3ccc(Br)c(F)c3F)nn2)[C@@H](O)[C@@H](CO)O[C@@H]1Cc1cn([C@H]2CCCC2(F)F)nn1"
assayed_system = "human Gal-3 (hGal-3) (Homo sapiens (Human))"
quantity_name = "IC50"
measured_number = 0.05

[[record]]
compound = "COCC1(n2cc(C[C@H]3O[C@H](CO)[C@H](O)[C@H](n4cc(-c5ccc(F)c(F)c5F)nn4)[C@H]3OC)nn2)COC1"
assayed_system = "human Gal-3 (hGal-3) (Homo sapiens (Human))"
quantity_name = "IC50"
measured_number = 0.06

[[record]]
compound = "COC1=C(N2CC(c3ccc(Cl)c(F)c3F)NN2)C(O)=C(CO)O[C@@H]1Cn1cc(C23CCC(NC(=O)OC(C)(C)C)(CC2)CC3)nn1 (some centres unmarked)"
assayed_system = "human Gal-3 (hGal-3) (Homo sapiens (Human))"
quantity_name = "IC50"
measured_number = 0.07

[[record]]
compound = "CO[C@@H]1[C@@H](n2cc(-c3ccc(Br)c(F)c3F)nn2)[C@@H](O)[C@@H](CO)O[C@@H]1Cc1cn(C2(C)CCC2)nn1"
assayed_system = "human Gal-3 (hGal-3) (Homo sapiens (Human))"
quantity_name = "IC50"
measured_number = 0.02

[[record]]
compound = "CO[C@@H]1[C@@H](n2cc(-c3ccc(Br)c(F)c3F)nn2)[C@@H](O)[C@@H](CO)O[C@@H]1Cc1cn(C23CC(C)(C2)C3)nn1"
assayed_system = "human Gal-3 (hGal-3) (Homo sapiens (Human))"
quantity_name = "IC50"
measured_number = 0.06


###

Measured pIC50, listed per entry for reference.
molecular target: human Gal-1 (hGal-1) (Homo sapiens, UniProt P09382, C131S/C17S/C43S/C61S/C89S); assay: Competitive binding assay: biotinylated hGal-1 binding to microplate-adsorbed asialofetuin (ASF); conditions: IC50 values from several measurements given as geomean
pIC50: −log10 of the molar value.
QUANTITY NAME: pIC50

[[record]]
compound = "CO[C@@H]1[C@@H](n2cc(-c3ccc(Br)c(F)c3F)nn2)[C@@H](O)[C@@H](CO)O[C@@H]1Cc1cn(C(C)(C)C(F)F)nn1 [Ex 4.1.28.]"
measured_number = 5.99

[[record]]
compound = "CO[C@@H]1[C@@H](n2cc(-c3ccc(Cl)c(F)c3F)nn2)[C@@H](O)[C@@H](CO)O[C@@H]1Cn1cc(C2(C(F)(F)F)CC2)nn1 [Ex 2.2.54.]"
measured_number = 5.61

[[record]]
compound = "CO[C@@H]1[C@@H](n2cc(-c3ccc(Br)c(F)c3F)nn2)[C@@H](O)[C@@H](CO)O[C@@H]1Cc1cn([C@H]2CCC[C@@H]2O)nn1 [Ex 4.1.3.]"
measured_number = 5.33

[[record]]
compound = "CO[C@@H]1[C@@H](n2cc(-c3ccc(Cl)c(F)c3F)nn2)[C@@H](O)[C@@H](CO)O[C@@H]1Cc1cn([C@@H]2CCCC[C@H]2F)nn1 [Example 2.1.81.C]"
measured_number = 5.53


###

target: human Gal-1 (hGal-1) (Homo sapiens, UniProt P09382, C131S/C17S/C43S/C61S/C89S); assay: Competitive binding assay: biotinylated hGal-1 binding to microplate-adsorbed asialofetuin (ASF); details: IC50 values from several measurements given as geomean
Flag rule - IC50 less than 0.7 µM flags Yes; the remaining entries get No.

[[record]]
compound = "CO[C@@H]1[C@@H](n2cc(-c3ccc(F)c(F)c3F)nn2)[C@@H](O)[C@@H](CO)O[C@@H]1Cc1cn(C2(CO)CCC2)nn1"
assayed_system = "human Gal-1 (hGal-1) (Homo sapiens, UniProt P09382, C131S/C17S/C43S/C61S/C89S)"
category = "No"

[[record]]
compound = "CO[C@@H]1[C@@H](n2cc(-c3ccc(F)c(F)c3F)nn2)[C@@H](O)[C@@H](CO)O[C@@H]1Cc1cn(C2CCC23CCC3)nn1 (stereo partly shown)"
assayed_system = "human Gal-1 (hGal-1) (Homo sapiens, UniProt P09382, C131S/C17S/C43S/C61S/C89S)"
category = "Yes"

[[record]]
compound = "CO[C@@H]1[C@@H](n2cc(-c3ccc(F)c(F)c3F)nn2)[C@@H](O)[C@@H](CO)O[C@@H]1Cn1cc(C2(C)CCC2)nn1"
assayed_system = "human Gal-1 (hGal-1) (Homo sapiens, UniProt P09382, C131S/C17S/C43S/C61S/C89S)"
category = "Yes"

[[record]]
compound = "CO[C@@H]1[C@@H](n2cc(-c3ccc(Cl)c(F)c3F)nn2)[C@@H](O)[C@@H](CO)O[C@@H]1Cn1cc(C2(C)CCC2)nn1"
assayed_system = "human Gal-1 (hGal-1) (Homo sapiens, UniProt P09382, C131S/C17S/C43S/C61S/C89S)"
category = "No"

[[record]]
compound = "CO[C@@H]1[C@@H](n2cc(-c3ccc(C)c(F)c3F)nn2)[C@@H](O)[C@@H](CO)O[C@@H]1Cc1cn(C23CC(C)(C2)C3)nn1"
assayed_system = "human Gal-1 (hGal-1) (Homo sapiens, UniProt P09382, C131S/C17S/C43S/C61S/C89S)"
category = "No"

[[record]]
compound = "CO[C@@H]1[C@@H](n2cc(-c3ccc(Cl)c(F)c3F)nn2)[C@@H](O)[C@@H](CO)O[C@@H]1Cc1cn(C23CC(F)(C2)C3)nn1"
assayed_system = "human Gal-1 (hGal-1) (Homo sapiens, UniProt P09382, C131S/C17S/C43S/C61S/C89S)"
category = "No"

[[record]]
compound = "CO[C@@H]1[C@@H](n2cc(-c3ccc(Cl)c(F)c3F)nn2)[C@@H](O)[C@@H](CO)O[C@@H]1Cc1cn(C2(C)CC(F)C2)nn1 (stereo partly shown)"
assayed_system = "human Gal-1 (hGal-1) (Homo sapiens, UniProt P09382, C131S/C17S/C43S/C61S/C89S)"
category = "No"

[[record]]
compound = "CO[C@@H]1[C@@H](n2cc(-c3ccc(F)c(F)c3F)nn2)[C@@H](O)[C@@H](CO)O[C@@H]1Cc1cn(C2(CF)CC2)nn1"
assayed_system = "human Gal-1 (hGal-1) (Homo sapiens, UniProt P09382, C131S/C17S/C43S/C61S/C89S)"
category = "Yes"

[[record]]
compound = "COCC1(n2cc(C[C@H]3O[C@H](CO)[C@H](O)[C@H](n4cc(-c5ccc(C)c(F)c5F)nn4)[C@H]3OC)nn2)COC1"
assayed_system = "human Gal-1 (hGal-1) (Homo sapiens, UniProt P09382, C131S/C17S/C43S/C61S/C89S)"
category = "No"

[[record]]
compound = "CO[C@@H]1[C@@H](n2cc(-c3ccc(Br)c(F)c3F)nn2)[C@@H](O)[C@@H](CO)O[C@@H]1Cn1cc(C2(O)CCOCC2)nn1"
assayed_system = "human Gal-1 (hGal-1) (Homo sapiens, UniProt P09382, C131S/C17S/C43S/C61S/C89S)"
category = "No"

[[record]]
compound = "CO[C@@H]1[C@@H](n2cc(-c3ccc(C)c(F)c3F)nn2)[C@@H](O)[C@@H](CO)O[C@@H]1Cc1cn(C2(CO)CCCC2)nn1"
assayed_system = "human Gal-1 (hGal-1) (Homo sapiens, UniProt P09382, C131S/C17S/C43S/C61S/C89S)"
category = "No"

[[record]]
compound = "CO[C@@H]1[C@@H](n2cc(-c3ccc(C#N)c(F)c3F)nn2)[C@@H](O)[C@@H](CO)O[C@@H]1Cc1cn(C2(C)COC2)nn1"
assayed_system = "human Gal-1 (hGal-1) (Homo sapiens, UniProt P09382, C131S/C17S/C43S/C61S/C89S)"
category = "No"

[[record]]
compound = "CO[C@@H]1[C@@H](n2cc(-c3ccc(Cl)c(F)c3F)nn2)[C@@H](O)[C@@H](CO)O[C@@H]1Cn1cc(C2(O)CCOCC2)nn1"
assayed_system = "human Gal-1 (hGal-1) (Homo sapiens, UniProt P09382, C131S/C17S/C43S/C61S/C89S)"
category = "No"

